# Test system: Moraxella catarrhalis
# TEST_SUMMARY: Antibacterial activity against Moraxella catarrhalis BC-3531 by micro-broth method
# Type: functional
A collection of compounds and their measured MIC
READOUT_KIND: MIC

{"SMILES_REPR": "O=C(NC[C@H]1CN(c2ccc3c(c2)CCCc2c(-c4cc5ccccc5o4)n[nH]c2-3)C(=O)O1)c1cc2ccccc2o1", "READOUT_KIND": "MIC", "VALUE_OBSERVED": "> 64 µg/mL"}
{"SMILES_REPR": "CC(=O)NC[C@H]1CN(c2ccc3c(c2)CCCc2c(-c4ccoc4)n[nH]c2-3)C(=O)O1", "READOUT_KIND": "MIC", "VALUE_OBSERVED": "1 µg/mL"}
{"SMILES_REPR": "O=C(NC[C@H]1CN(c2ccc3c(c2)CCCc2c(-c4ccno4)n[nH]c2-3)C(=O)O1)C(F)F", "READOUT_KIND": "MIC", "VALUE_OBSERVED": "1 µg/mL"}
{"SMILES_REPR": "CC(=O)NC[C@H]1CN(c2ccc3c(c2)CCCc2c(-c4cscn4)n[nH]c2-3)C(=O)O1", "READOUT_KIND": "MIC", "VALUE_OBSERVED": "1 µg/mL"}
